assay: amorphous solubility in pH 6.5 PBS containing 0.5% SIF; assay type: physicochemical; details: phosphate buffered saline with 0.5% SIF powder, fassif; pH 6.5 PBS containing 0.5% SIF powder; read-out: approximate amorphous solubility
endpoint-name: solubility

Query: Which solubility is listed for "CN1CCN(c2ccc(C(=O)Nc3n[nH]c4ccc(Cc5cc(F)cc(F)c5)cc34)c(NC3CCOCC3)c2)CC1" ?
Result: ~1000 µg/mL
